target: Melanocortin receptor 4 (Homo sapiens, UniProt P32245); assay: […] at human MC4R assessed as stimulation of cAMP production
Sequence (P32245 whole entry): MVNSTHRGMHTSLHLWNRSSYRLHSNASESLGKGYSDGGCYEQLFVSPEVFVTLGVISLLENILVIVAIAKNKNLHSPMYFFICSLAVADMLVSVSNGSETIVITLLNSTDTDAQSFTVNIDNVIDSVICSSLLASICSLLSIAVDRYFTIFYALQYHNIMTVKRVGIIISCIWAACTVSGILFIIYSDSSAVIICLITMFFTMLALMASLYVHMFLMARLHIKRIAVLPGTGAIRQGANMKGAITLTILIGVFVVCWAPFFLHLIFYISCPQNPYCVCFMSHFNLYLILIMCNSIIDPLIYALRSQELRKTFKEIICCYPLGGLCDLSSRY
Entries annotated with measured pEC50
pEC50 is defined as minus the log10 of a concentration measured in mol/L.

Past entries and their recorded results:
compound=Cn1nnnc1CC1(C2CCOCC2)CCN(C(=O)[C@H](Cc2ccc(Cl)cc2)NC(=O)[C@H]2Cc3ccccc3CN2)CC1 quantitymeasured=pEC50 assayvalue=6.80
compound=CN1CCN[C@@H](C(=O)N[C@@H](Cc2ccc(F)cc2)C(=O)N2CCC(C(=O)NC(C)(C)C)(C3CCC(C)(C)CC3)CC2)C1 quantitymeasured=pEC50 assayvalue=6.26
compound="CCC(C)C1(Cc2nnnn2C)CCN(C(=O)[C@H](Cc2ccc(Cl)cc2)NC(=O)[C@H]2Cc3ccccc3CN2)CC1 (stereo partly specified)" quantitymeasured=pEC50 assayvalue=8.41
compound=N#CCC1(C2CCCC2)CCN(C(=O)[C@H](Cc2ccc(Cl)cc2)NC(=O)[C@H]2Cc3ccccc3CN2)CC1 quantitymeasured=pEC50 assayvalue=6.71
compound=Cn1nnnc1CC1(C2CCCCC2)CCN(C(=O)[C@H](Cc2ccc(Cl)cc2)NC(=O)[C@H]2Cc3ccccc3CN2)CC1 quantitymeasured=pEC50 assayvalue=8.49

Field: next compound
Which pEC50 is reported for this compound? CCCCCCC1(Cc2nnnn2C)CCN(C(=O)[C@H](Cc2ccc(Cl)cc2)NC(=O)[C@H]2Cc3ccccc3CN2)CC1
7.54
